- Test system: HEK293 cells
- protocol: Preliminary screening as DNA vectors, GFP transfection of HEK293 cells
- Assay type: cell-based
- run-parameters: amino lipid/DOPE liposome with 75 ng plasmid DNA (psin-EGFP-IRES-Puro); number of GFP-expressing cells divided by total nuclei (Hoechst)
property-measured: Absolute DNA transfection efficiency in HEK293 cells (%)
Give a bare numeral; the unit % is implied.

>  <compound>
CCCCCCCNc1nc(NCCN2CCOCC2)nc(SCCCCCCC)n1 [S7N7 D2]

>  <target-under-test>
HEK293 cells

>  <numeric-value>
2.5

$$$$
>  <compound>
CCCCCCCCCCCNc1nc(NCCN2CCOCC2)nc(SCCCCCCC)n1 [S7N11 D2]

>  <target-under-test>
HEK293 cells

>  <numeric-value>
31.1

$$$$
>  <compound>
CCCCCCCCCCCCCCCCNc1nc(NCC2CCN(C)CC2)nc(SCCCCCCCCCCCC)n1

>  <target-under-test>
HEK293 cells

>  <numeric-value>
2.4

$$$$
>  <compound>
CCCCCCCCCCCSc1nc(NCCCCCC)nc(NCCN2CCOCC2)n1 [S11N6 D2]

>  <target-under-test>
HEK293 cells

>  <numeric-value>
19.0

$$$$

Query: Find Absolute DNA transfection efficiency in HEK293 cells (HEK293 cells) for the entry CCCCCCCCCCCCCCCSc1nc(NCCCCCCC)nc(NCCN(C)C)n1 [S15N7 D1]
Response: 18.2

Query: Which measured Absolute DNA transfection efficiency in HEK293 cells belongs to `CCCCCCCCCCCCCCCCCCSc1nc(NCCCCCCCCCCC)nc(NCCN2CCCC2)n1` , tested on HEK293 cells?
Response: 4.2

Query: Form field: Absolute DNA transfection efficiency in HEK293 cells recorded for `CCCCCCCCCCCCCCCCSc1nc(NCCCCCCCCCCC)nc(NCCCN2CCOCC2)n1` with HEK293 cells (enter value)
Response: 5.0

====

- System: HEK293 cells
- protocol: Preliminary screening as DNA vectors, GFP transfection of HEK293 cells
- Type: cell-based
- run-parameters: amino lipid/DOPE liposome with 75 ng plasmid DNA (psin-EGFP-IRES-Puro); number of GFP-expressing cells divided by total nuclei (Hoechst)
Checkbox rule: Absolute DNA transfection efficiency in HEK293 cells lower than 8% = label 1; Absolute DNA transfection efficiency in HEK293 cells not lower than 8% = label 0.

>  <compound>
CCCCCCCCCCCCCCCCCCSc1nc(NCCCN2CCN(C)CC2)nc(SCCCCCCC)n1 [S7S18 D9]

>  <target-under-test>
HEK293 cells

>  <category-label>
label 0

$$$$
>  <compound>
CCCCCCCCCCCCCNc1nc(NCCCN2CCOCC2)nc(SCCCCCCCCCC)n1 [S10N13 D8]

>  <target-under-test>
HEK293 cells

>  <category-label>
label 1

$$$$
>  <compound>
CCCCCCCCCCCCCCCCSc1nc(NCCCN2CCOCC2)nc(SCCCCCCC)n1 [S7S16 D8]

>  <target-under-test>
HEK293 cells

>  <category-label>
label 0

$$$$
>  <compound>
CCCCCCCCCCCCCCCCCCSc1nc(NCCN2CCCCC2)nc(SCCCCCCC)n1 [S7S18 D4]

>  <target-under-test>
HEK293 cells

>  <category-label>
label 0

$$$$
>  <compound>
CCCCCCCCCSc1nc(NCC2CCN(C)CC2)nc(SCCCCCC)n1 [S6S9 D10]

>  <target-under-test>
HEK293 cells

>  <category-label>
label 0

$$$$
>  <compound>
CCCCCCCCCCCCCCCCCCSc1nc(NCCCCCCC)nc(NCCCN2CCOCC2)n1 [S18N7 D8]

>  <target-under-test>
HEK293 cells

>  <category-label>
label 1

$$$$
>  <compound>
CCCCCCCCCCCCCCCCCCSc1nc(NCCCCCCCCC)nc(NCC2CCN(C)CC2)n1 [S18N9 D10]

>  <target-under-test>
HEK293 cells

>  <category-label>
label 1

$$$$
>  <compound>
CCCCCCCCCCCSc1nc(NCCCCCC)nc(NCCN(C)C)n1 [S11N6 D1]

>  <target-under-test>
HEK293 cells

>  <category-label>
label 0

$$$$

Query: Lab note: confirm whether the reported Absolute DNA transfection efficiency in HEK293 cells for this compound is below 8%, equality not counting. compound: CCCCCCCCCCCCCCCNc1nc(NCCN2CCCCC2)nc(SCCCCCCCCCC)n1 [S10N15 D4]
Response: label 1

Query: Answer whether the compound CCCCCCCCCCCCCCSc1nc(NCCCCCCC)nc(NCCN2CCOCC2)n1 [S14N7 D2] has Absolute DNA transfection efficiency in HEK293 cells strictly less than 8%
Response: label 0

Query: For this compound, is Absolute DNA transfection efficiency in HEK293 cells lower than 8%? CCCCCCCCCCCCCCCCCCSc1nc(NCCCCCCCCCCCCC)nc(NCC2CCN(C)CC2)n1 [S18N13 D10]
Response: label 1
